# Target or test system: recombinant human CD3ε/δ heterodimer (human) (UniProt P07766)
# Sequence (P07766 23-126, stated change not applied, chain 1 of 2): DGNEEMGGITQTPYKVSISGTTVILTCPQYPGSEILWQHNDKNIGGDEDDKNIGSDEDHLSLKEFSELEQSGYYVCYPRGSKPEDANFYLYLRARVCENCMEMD
# Sequence (P04234 22-105, stated change not applied, chain 2 of 2, further chain): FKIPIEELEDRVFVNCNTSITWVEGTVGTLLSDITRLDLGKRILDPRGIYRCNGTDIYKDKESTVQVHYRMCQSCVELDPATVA
# Assay procedure: BLI (Octet), antigen on anti-Penta His sensor, antibody 50 nM
Please respond with reported kon for every item in the list.
One number for each entry, in M⁻¹ s⁻¹.

# Binder, kon, M⁻¹ s⁻¹
records = [
    ("G16 (antibody, human IgG1, lambda, L234A L235A, V domains shown) VH: EVQLVESGGGLVQPGGSLKLSCAASGFTFNTYAMNWVRQASGKGLEWVARIRSKYNNYATYYADSVKDRFTISRDDSQSTAYLQMNSLKTEDTAVYYCVRHGNFGNSYVSWFAYWGQGTLVTVSS VL: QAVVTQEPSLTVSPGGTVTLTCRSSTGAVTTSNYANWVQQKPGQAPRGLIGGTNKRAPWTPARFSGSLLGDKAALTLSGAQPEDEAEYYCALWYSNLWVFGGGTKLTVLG", 153000),
]

Next item in the queue.
input: Tell us which kon value is on record for C15 (antibody, human IgG1, lambda, L234A L235A, V domains shown) VH: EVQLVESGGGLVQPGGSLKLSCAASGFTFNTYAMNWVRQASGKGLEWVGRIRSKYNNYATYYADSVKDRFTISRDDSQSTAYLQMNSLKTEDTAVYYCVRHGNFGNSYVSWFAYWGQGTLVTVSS VL: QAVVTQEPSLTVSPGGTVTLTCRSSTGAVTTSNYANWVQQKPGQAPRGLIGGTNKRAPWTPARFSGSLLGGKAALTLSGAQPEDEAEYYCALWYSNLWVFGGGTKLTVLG
output: 376000
